Listed here are molecules together with their documented Potency.
# test_system: Steryl-sulfatase (Homo sapiens) (UniProt P08842)
# Sequence (whole entry): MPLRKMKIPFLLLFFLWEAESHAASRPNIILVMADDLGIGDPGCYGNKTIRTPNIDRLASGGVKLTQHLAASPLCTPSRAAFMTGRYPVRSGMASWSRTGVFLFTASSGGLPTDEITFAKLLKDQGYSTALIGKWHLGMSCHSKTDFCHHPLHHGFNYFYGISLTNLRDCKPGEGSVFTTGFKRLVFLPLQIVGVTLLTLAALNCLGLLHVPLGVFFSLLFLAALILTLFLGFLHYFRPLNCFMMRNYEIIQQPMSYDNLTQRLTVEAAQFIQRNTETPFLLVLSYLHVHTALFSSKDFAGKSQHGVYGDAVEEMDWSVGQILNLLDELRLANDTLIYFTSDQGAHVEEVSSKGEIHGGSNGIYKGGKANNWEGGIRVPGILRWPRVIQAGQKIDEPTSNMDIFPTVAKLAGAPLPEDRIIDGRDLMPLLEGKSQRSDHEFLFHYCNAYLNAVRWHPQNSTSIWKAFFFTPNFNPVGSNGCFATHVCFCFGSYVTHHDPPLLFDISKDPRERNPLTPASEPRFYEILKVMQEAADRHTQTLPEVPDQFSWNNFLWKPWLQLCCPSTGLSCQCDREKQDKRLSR
# assay_overview: Relative potency compared to EMATE against Estrone sulfatase
Give the value as a plain number.

Answered cases to consult:
Item: NS(=O)(=O)Oc1ccc(C(=O)c2ccccc2)cc1 Test system: Steryl-sulfatase (Homo sapiens) (UniProt P08842) Read-out: Potency Value: ?
0.0079

Observed Potency on Steryl-sulfatase (Homo sapiens) (UniProt P08842) for NS(=O)(=O)Oc1ccc(C(=O)/C=C/c2ccccc2)cc1 , please.
0.0019

Can you look up Potency on Steryl-sulfatase (Homo sapiens) (UniProt P08842) for CCCCCCCCCC(=O)c1ccc(OS(N)(=O)=O)cc1 ?
0.0385

We now examine a further molecule.
# value lookup — system Steryl-sulfatase (Homo sapiens) (UniProt P08842), readout Potency, item CC(=O)c1ccc(OS(N)(=O)=O)cc1
0.0016
